Assayed Target: T1, CRBN, Q96SW2;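 also: pooled lentiviral library of zinc finger degron-EGFP fusions in mCherry-positive Jurkat cells, FACS-sorted after compound exposure, with degron abundance counted by next-generation sequencing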
T1 chain: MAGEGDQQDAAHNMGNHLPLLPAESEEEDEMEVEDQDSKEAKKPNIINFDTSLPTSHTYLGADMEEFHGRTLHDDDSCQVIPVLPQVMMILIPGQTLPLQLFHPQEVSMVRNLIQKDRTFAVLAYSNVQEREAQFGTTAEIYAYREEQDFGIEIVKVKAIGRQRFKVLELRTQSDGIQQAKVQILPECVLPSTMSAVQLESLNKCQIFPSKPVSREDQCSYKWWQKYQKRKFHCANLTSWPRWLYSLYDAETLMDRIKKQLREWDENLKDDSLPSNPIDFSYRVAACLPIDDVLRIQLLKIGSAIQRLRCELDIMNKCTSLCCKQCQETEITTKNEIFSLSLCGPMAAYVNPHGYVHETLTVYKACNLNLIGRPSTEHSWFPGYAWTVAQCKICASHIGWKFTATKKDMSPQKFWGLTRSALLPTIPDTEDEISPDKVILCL
Test: log2 fold change of degron read counts, EGFP-low vs EGFP+ sorted cells (limma voom), compound-induced degradation; higher = more compound-induced degradation of the degron-EGFP fusion; degrons are variants of IKZF1/3 zinc finger 2; compound dose not given here
Test Parameters: Jurkat; 18 h; compound: thalidomide
Over roughly 8,300 sequences, “log2 fold change of degron read counts, EGFP-low vs EGFP+ sorted cells (limma voom), compound-induced degradation” has its median near -1.1; the highest 2% begin near 3.2. The full list was thinned out, with the highest values kept by preference.
Readout: log2 fold change of degron read counts

> print(dat)
                             sequence.input  reported
1  FTCDICGAPFTQKGNLLRHIKL [46F_47T_49D_50I_52G_53A_54P_55F_67L_, Q9UKT9]      1.93
2  FSCDICGAPFTQKGNLLRHIKL [46F_47S_49D_50I_52G_53A_54P_55F_67L_, Q9UKT9]     0.668
3  FWCNICGARFTQKGNLLRHIKL [46F_47W_49N_50I_52G_53A_54R_55F_67L_, Q9UKT9]     0.523
4  FLCDICGAPFTQKGNLLRHIKL [46F_47L_49D_50I_52G_53A_54P_55F_67L_, Q9UKT9]      1.99
5  FECDICGAPFTQKGNLLRHIKL [46F_47E_49D_50I_52G_53A_54P_55F_67L_, Q9UKT9]     0.305
6  FQCNICGARFTQKGNLLRHIKL [46F_47Q_49N_50I_52G_53A_54R_55F_67L_, Q9UKT9]      3.26
7  FNCNICGARFTQKGNLLRHIKL [46F_47N_49N_50I_52G_53A_54R_55F_67L_, Q9UKT9]    -0.266
